- Method description: Sensory evaluation of fizziness enhancement in carbonated water (WILKINSON TANSAN), specialized panelists
- Assay type: in vivo
- Conditions used: 10 ppm, average score of seven panelists, 1 to 5
Observed property: Fizziness enhancement evaluation result (points)
One number for each entry, in points.

Example cases with answers are listed next.
> print(dat)
                                   compound                        observed.property  test.result
1  CCCOC(=O)CCCCC(=O)OCCC [Dipropyl adipate, dipropyl adipate]  Fizziness enhancement evaluation result          3.0
2  CCOC(=O)CCCCCCCCC(=O)OCC [Diethyl sebacate, diethyl sebacate]  Fizziness enhancement evaluation result          4.5
3  CC(C)COC(=O)CCCCC(=O)OCC(C)C [Diisobutyl adipate, diisobutyl adipate]  Fizziness enhancement evaluation result          1.3

Next, consider the following compound.
Record summary for COC(=O)CCCCCCCCC(=O)OC [Dimethyl sebacate, dimethyl sebacate] : reported Fizziness enhancement evaluation result = 3.1

Origin of values: patent US20260293949A1
